Biological target: T1, human GIP receptor (human, UniProt P48546 22-466)
T1 sequence (looked up): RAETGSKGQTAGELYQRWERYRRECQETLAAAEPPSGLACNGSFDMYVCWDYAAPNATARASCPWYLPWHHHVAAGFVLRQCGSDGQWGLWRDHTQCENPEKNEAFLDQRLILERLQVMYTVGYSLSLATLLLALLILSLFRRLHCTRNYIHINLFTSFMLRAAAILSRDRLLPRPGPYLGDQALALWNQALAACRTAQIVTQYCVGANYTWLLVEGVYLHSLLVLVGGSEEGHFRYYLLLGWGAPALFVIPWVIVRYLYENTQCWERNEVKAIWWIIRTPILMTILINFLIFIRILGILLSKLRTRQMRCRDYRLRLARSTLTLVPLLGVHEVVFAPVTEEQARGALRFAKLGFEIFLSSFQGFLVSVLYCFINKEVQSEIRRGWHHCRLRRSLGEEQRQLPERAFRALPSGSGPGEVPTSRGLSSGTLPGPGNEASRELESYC
Assay: cell-based or functional assay
Where no end group is shown, it is not given here. [ ]: non-standard residue; d: D form. Phe(4-NO2) = N[C@@H](Cc1ccc([N+](=O)[O-])cc1)C(=O)O; Phe(4-F) = N[C@@H](Cc1ccc(F)cc1)C(=O)O; Met(O) = CS(=O)CC[C@H](N)C(=O)O; Nle = CCCC[C@H](N)C(=O)O; Aib = CC(C)(N)C(=O)O

BINDER: Y[Aib]EGTFTSDYSI[Phe(4-F)][Met(O)]EKIHQQDFVNWLLAQ-NH2 [Analog 004]
EC50, GIP Receptor cAMP induction [nM]: 14.6

BINDER: Y[Aib]EGTFTSDYSIYMEKIHQQDFVNWLLAQ-NH2 [Analog 003]
EC50, GIP Receptor cAMP induction [nM]: 0.18

BINDER: Y[Aib]EGTFTSDYSI[Phe(4-NO2)][Nle]EKIHQQDFVNWLLAQ-NH2 [Analog 008]
EC50, GIP Receptor cAMP induction [nM]: 24.2

BINDER: Y[Aib]EGTFTSDYSIF[Nle]EKIHQQDFVNWLLAQ-NH2 [Analog 011]
EC50, GIP Receptor cAMP induction [nM]: 693

BINDER: Y[Aib]EGTFISDYSIA[Nle]EKIHQQDFVNWLLAQ-NH2 [Analog 010]
EC50, GIP Receptor cAMP induction [nM]: 11.5

BINDER: Y[Aib]EGTFTSDYSIY[Nle]EKIHQQDFVNWLVRQ-NH2 [Analog 021]
EC50, GIP Receptor cAMP induction [nM]: 2.3
